Tested on: K-562 leukemia
Assay: NCI tumour cell line growth inhibition, 48 h
TGI for assorted molecules

Solved entries:
COc1cc(/C=C2\N=C(c3ccccc3)N(/N=C3\C(=O)Nc4ccccc43)C2=O)cc(OC)c1OC
> 100 µM
Cn1cc(NC(=O)c2cc(NC(=O)Nc3cc(C(=O)Nc4cc(C(=O)NCCC(=N)N)n(C)c4)n(C)c3)cn2C)cc1C(=O)NCCC(=N)N
> 100 µM

TGI measured on COc1ccc(Nc2ccnc(NCCNc3ccnc4cc(Cl)ccc34)n2)cc1 = 4.75 µM

TGI measured on O=C(Cn1c(=O)c(-c2ccccc2)nc2ccccc21)c1cccnc1 = > 100 µM

TGI measured on O=C(O)CNS(=O)(=O)c1ccc(NC(=O)c2ccc(F)cc2)cc1 = > 100 µM

TGI measured on NC(N)=N/N=C/c1c(-c2cccs2)nc2sccn12 = 21.5 µM

TGI measured on O=C1C=C2CO[C@H]3OC[C@H](O)[C@@H]1[C@@H]23 = > 100 µM

* * *

Test system: SK-MEL-5 melanoma
Test: NCI tumour cell line growth inhibition, 48 h
property: TGI

Solved entries:
O=C1CCCC2=C1C(c1ccc3c(c1)OCO3)Nc1ccc3ccccc3c12 (stereo not drawn)
> 100 µM
CN(C)/C=C/c1nnnn1-c1ccc(Cl)cc1
35.4 µM

TGI measured on C=CCN(c1cc(OCc2ccccc2)c(NC(C)=O)cc1[N+](=O)[O-])S(C)(=O)=O = > 100 µM

* * *

TGI for assorted molecules
System: HCT-15 colon
Test: NCI tumour cell line growth inhibition, 48 h

Solved entries:
Cc1cc(NS(=O)(=O)c2ccc(NC(=O)c3cccc4c(NNc5ccc(S(=O)(=O)N=C(N)N)cc5)c5ccccc5nc34)cc2)no1
> 100 µM
Cn1c(-c2ccc[se]2)ccc1-c1ccc(CO)[se]1
> 63.8 µM
Cc1[nH]c(C(=O)Nc2ccc(C(=O)N3CCNCC3)cc2OC(C)C)c(Cl)c1Cl
3.43 µM

TGI measured on Nc1ccc(N=Nc2ccccc2)c(N)n1 = > 100 µM

TGI measured on N=S(=O)(c1ccccc1)c1ccccc1[N+](=O)[O-] (stereo not drawn) = > 100 µM

TGI measured on N#Cc1c2ccccc2c2n1-c1ccccc1OC(c1ccccc1)C2=O (stereo not drawn) = 12.5 µM

TGI measured on CCCC(CC)c1c(O)c(O)c(C(CC)CCC)c(C(CC)CCC)c1C(CC)CCC (stereo not drawn) = > 10 µM

TGI measured on O=C(Nc1ccc(Cl)cc1)c1cc2c(cc1O)[nH]c1ccccc12 = 13.1 µM

* * *

System: UO-31 renal
Assay: NCI tumour cell line growth inhibition, 48 h
property: TGI

CCCn1c(=O)c2ccccc2[n+]2c(-c3ccc([N+](=O)[O-])cc3)csc12
97.3 µM
COC(=O)Nc1nc2ccc(Oc3ccc(NC(=O)Nc4cccc(Br)c4)cc3)cc2[nH]1
> 25 µM
Nc1ccccc1NC(=O)CCCCCCC(=O)Nc1ccc2c(c1)/C(=C/c1ccc[nH]1)C(=O)N2
> 100 µM
O=C1CCC2(CC1CCSc1ccccc1)OCCO2 (configuration not stated)
> 100 µM
COc1ccc(Nc2ncccc2/C=C/C(=O)c2cc(OC)c(OC)c(OC)c2)cc1
2.33 µM
CO/C(=N\N=C\c1ccc(Cl)cc1Cl)c1ccncc1
> 10 µM

# context switch: different compound, same TGI
TGI measured on O=c1[nH]c(=O)n(COCc2ccccc2)c2ccc([N+](=O)[O-])cc12 = > 100 µM
